Kindly state pIC50 for each of the entries shown.
Assayed system: BChE (EC 3.1.1.8) (Homo sapiens, UniProt P06276)
Sequence (P06276 29-602, species assumed): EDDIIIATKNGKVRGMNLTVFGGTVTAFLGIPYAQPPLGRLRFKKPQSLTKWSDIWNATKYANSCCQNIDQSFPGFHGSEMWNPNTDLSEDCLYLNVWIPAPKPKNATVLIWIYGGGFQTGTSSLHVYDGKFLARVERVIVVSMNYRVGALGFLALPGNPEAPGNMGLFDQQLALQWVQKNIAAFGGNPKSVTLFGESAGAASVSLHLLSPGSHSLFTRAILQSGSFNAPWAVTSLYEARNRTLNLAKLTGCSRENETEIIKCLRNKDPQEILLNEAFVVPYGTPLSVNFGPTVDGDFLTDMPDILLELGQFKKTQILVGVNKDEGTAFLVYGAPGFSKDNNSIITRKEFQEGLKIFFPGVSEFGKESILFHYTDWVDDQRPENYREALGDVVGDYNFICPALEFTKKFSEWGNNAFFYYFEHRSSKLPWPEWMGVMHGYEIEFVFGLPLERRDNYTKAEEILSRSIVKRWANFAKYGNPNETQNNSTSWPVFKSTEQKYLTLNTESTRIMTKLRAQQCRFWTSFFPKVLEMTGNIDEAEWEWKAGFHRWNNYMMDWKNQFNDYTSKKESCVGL
Assay explanation: In vitro BChE inhibition assay
Assay type: biochemical
Numbers only, as −log10 of the molar value.

O=C(O)c1ccc(-n2nc(-c3ccccc3O)nc2-c2ccccc2O)cc1 [Compound 9, deferasirox, reference compound] = 6.96

Now turn to the next compound.
# input What measured pIC50 goes with Oc1ccccc1-c1nc(-c2ccccc2O)n(-c2ccc(-c3nnc4n3N=C(c3ccc(Cl)cc3)CS4)cc2)n1 [Compound 15] ?
# output 5.40

* * *

Assayed system: Cyclooxygenase (COX-2) from human recombinant (Homo sapiens, UniProt P35354)
Sequence (P35354 18-604): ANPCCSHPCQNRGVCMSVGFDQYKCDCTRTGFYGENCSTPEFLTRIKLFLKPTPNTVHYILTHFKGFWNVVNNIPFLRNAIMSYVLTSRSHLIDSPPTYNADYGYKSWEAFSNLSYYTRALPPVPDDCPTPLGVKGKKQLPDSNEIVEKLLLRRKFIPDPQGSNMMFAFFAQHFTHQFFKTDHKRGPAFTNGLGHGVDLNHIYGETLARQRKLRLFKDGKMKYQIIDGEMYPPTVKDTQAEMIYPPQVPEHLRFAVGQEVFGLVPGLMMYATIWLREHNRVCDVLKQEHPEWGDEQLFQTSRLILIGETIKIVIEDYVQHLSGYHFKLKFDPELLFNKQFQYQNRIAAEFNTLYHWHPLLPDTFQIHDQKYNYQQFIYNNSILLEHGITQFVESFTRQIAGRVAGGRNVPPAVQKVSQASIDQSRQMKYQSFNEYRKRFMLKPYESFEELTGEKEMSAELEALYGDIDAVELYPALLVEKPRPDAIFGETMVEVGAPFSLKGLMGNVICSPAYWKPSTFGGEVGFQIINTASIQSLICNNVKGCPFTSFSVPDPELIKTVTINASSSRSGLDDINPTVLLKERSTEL
Assay explanation: biochemical
Format: biochemical
Readout: pIC50
One number for each entry, as −log10 of the molar value.

Oc1ccccc1-c1nc(-c2ccccc2O)n(-c2ccc(-c3nnc4n3N=C(c3ccc(Cl)cc3)CS4)cc2)n1 = 4.12

Now turn to the next compound.
# input What measured pIC50 goes with O=C(O)c1ccc(-n2nc(-c3ccccc3O)nc2-c2ccccc2O)cc1 [Compound 9, deferasirox, reference compound] ?
# output 5.31

Reference for the values: paper PMC11694444
